# Measured on: testosterone 5α-reductase (Rattus norvegicus)
# Sequence (P24008 whole entry): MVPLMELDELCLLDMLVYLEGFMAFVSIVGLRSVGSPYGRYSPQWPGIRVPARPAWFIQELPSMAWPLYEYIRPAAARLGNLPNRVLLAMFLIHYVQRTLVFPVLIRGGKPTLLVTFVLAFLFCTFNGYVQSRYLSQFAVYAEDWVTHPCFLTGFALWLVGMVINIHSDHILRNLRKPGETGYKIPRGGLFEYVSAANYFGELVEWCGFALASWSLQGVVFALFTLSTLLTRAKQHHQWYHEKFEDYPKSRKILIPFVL
# Protocol summary: Assay for testosterone 5α-reductase inhibitory activity (rat liver S9 fractions, HPLC of remaining testosterone)
# Type: biochemical
# Cond: 3 μM; mean ± S.E.M. (N = 3–4); read-out: Inhibition (%)
Measured quantity: inhibition at 3 µM (%)
// return numeric value only (unit: %, not printed)

The following compounds have reported results that may help.
Compound	Value measured
CCCC(=O)c1c(O)c(C/C=C(\C)CCC=C(C)C)c(O)c2c([C@H](CC)OC(C)=O)cc(=O)oc12	12.6
CC[C@H](O)c1cc(=O)oc2c(C(=O)CC(C)C)c(O)c3c(c12)OC(C)(CCC=C(C)C)C=C3 (stereo partly shown)	20
CCCC(=O)c1c(O)c(CC=C(C)C)c2oc(=O)cc([C@@H](O)CC)c2c1O	2.6

Ask: Fill in the blank: the reported inhibition at 3 µM of CCC(C)C(=O)c1c(O)c(C/C=C(\C)CCC=C(C)C)c(O)c2c([C@@H](O)CC)cc(=O)oc12 (stereo partly shown) is ____.
Reply: 28.2

Ask: CC(C)=CCC/C(C)=C/Cc1c(O)c(C(=O)C(C)C)c2oc(=O)cc3c2c1OC(C)C3 (stereo not shown) ?
Reply: 3.4

Ask: CC[C@H](O)c1cc(=O)oc2c(CC=C(C)C)c(O)c(C(=O)CC(C)C)c(O)c12 ?
Reply: 14.4

Ask: CC[C@H](OC(C)=O)c1cc(=O)oc2c(C(=O)CC(C)C)c(O)c(C/C=C(\C)CCC=C(C)C)c(O)c12 ?
Reply: 35.3

Ask: CCCC(=O)c1c2c(c3oc(=O)cc(-c4ccccc4)c3c1O)CC(C(C)(C)O)O2 (stereo not shown) ?
Reply: 4.2

Ask: CCC(C)C(=O)c1c(O)c(CC=C(C)C)c2oc(=O)cc([C@@H](O)CC)c2c1O (stereo partly shown) ?
Reply: 4.6

Ask: CC(C)CC(=O)c1c2c(c3oc(=O)cc(-c4ccccc4)c3c1O)CC(C(C)(C)O)O2 (stereo not shown) ?
Reply: 13.8

----------
Reported inhibition at 100 µM values are given for each entry in this list.
# Measured on: testosterone 5α-reductase (Rattus norvegicus)
# Protocol summary: Assay for testosterone 5α-reductase inhibitory activity (rat liver S9 fractions, HPLC of remaining testosterone)
# Format: biochemical
# Cond: 100 μM; mean ± S.E.M. (N = 3–4); read-out: Inhibition (%)
// return numeric value only (unit: %, not printed)

The following compounds have reported results that may help.
Compound	Measured on	Value measured
CCC(C)C(=O)c1c(O)c2c(c3c([C@@H](O)CC)cc(=O)oc13)OC(C)(CCC=C(C)C)C=C2 (stereo partly drawn)	testosterone 5α-reductase (Rattus norvegicus)	14.9
CC[C@H](OC(C)=O)c1cc(=O)oc2c(C(=O)CC(C)C)c(O)c(C/C=C(\C)CCC=C(C)C)c(O)c12	testosterone 5α-reductase (Rattus norvegicus)	83.7
CCCC(=O)c1c(O)c2c(c3c([C@@H](O)CC)cc(=O)oc13)OC(C)(C)C=C2	testosterone 5α-reductase (Rattus norvegicus)	40.8

Ask: Fill in the blank: the reported inhibition at 100 µM of CCC(C)C(=O)c1c(O)c(CC=C(C)C)c2oc(=O)cc([C@@H](O)CC)c2c1O (stereo partly drawn) is ____.
Reply: 94.6

Ask: CCCC(=O)c1c(O)c2c(c3c([C@@H](O)CC)cc(=O)oc13)OC(C)(CCC=C(C)C)C=C2 (stereo partly drawn) ?
Reply: 37.5
